Value source: patent US20260365670A1

biological target: EGFR Exon19Del/T790M (Homo sapiens, UniProt P00533, DEL746-750/T790M); construct: purchased Carna Bio; assay: Inhibition of EGFR Exon19Del/T790M biochemical enzymatic activity (HTRF); settings: EGFR Del19-T790M, 1 mM ATP, 1 h, room temperature, read-out: IC50 (nM) @Del19-T790M
Sequence (P00533 with tags, fused parts or gaps DEL746-750/T790M limits assumed): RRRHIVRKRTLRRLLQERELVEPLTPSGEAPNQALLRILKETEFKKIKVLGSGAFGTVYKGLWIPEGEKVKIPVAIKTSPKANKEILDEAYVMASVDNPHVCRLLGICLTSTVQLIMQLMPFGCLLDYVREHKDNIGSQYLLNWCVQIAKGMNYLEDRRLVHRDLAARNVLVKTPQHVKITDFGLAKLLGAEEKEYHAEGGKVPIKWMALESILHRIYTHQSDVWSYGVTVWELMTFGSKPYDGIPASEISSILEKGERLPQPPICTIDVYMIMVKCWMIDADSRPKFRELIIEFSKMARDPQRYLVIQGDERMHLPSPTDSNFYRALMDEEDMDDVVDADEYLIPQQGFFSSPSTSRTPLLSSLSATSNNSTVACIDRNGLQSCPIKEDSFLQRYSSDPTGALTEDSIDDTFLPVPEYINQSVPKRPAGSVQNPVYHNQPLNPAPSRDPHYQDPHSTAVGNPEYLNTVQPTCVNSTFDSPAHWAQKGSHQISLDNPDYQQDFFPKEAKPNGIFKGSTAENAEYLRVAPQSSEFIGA
Overview of recorded IC50 for various compounds
Give the value in nM but do not write nM after it.

INSERT INTO measurements (item_smiles, numeric_value) VALUES
  ('C[C@@H]1CCCOc2c(cnn2C)-c2cc(cn(C)c2=O)C(=O)Nc2nc3ccc(N4CC(F)(CN(C)C)C4)cc3n2C1', 16);

# next compound below
Request: // Input: `C[C@@H]1CCCOc2c(cnn2C)-c2cc(cn(C)c2=O)C(=O)Nc2nc3ccc(N4CCNCC4)cc3n2C1` . Output its IC50 only.
Response: 3.7

* * *

target: EGFR[T790M/C797S/L858R] (Homo sapiens, UniProt P00533, C797S/L858R/T790M); construct: purchased Carna Bio; assay: Inhibition of EGFR[T790M/C797S/L858R] biochemical enzymatic activity (HTRF); settings: EGFR T790M-C797S-L858R, 1 mM ATP, 1 h, room temperature, read-out: IC50 (nM) @T790M- C797S - L858R
Sequence (P00533 25-1210 T790M/C797S/L858R): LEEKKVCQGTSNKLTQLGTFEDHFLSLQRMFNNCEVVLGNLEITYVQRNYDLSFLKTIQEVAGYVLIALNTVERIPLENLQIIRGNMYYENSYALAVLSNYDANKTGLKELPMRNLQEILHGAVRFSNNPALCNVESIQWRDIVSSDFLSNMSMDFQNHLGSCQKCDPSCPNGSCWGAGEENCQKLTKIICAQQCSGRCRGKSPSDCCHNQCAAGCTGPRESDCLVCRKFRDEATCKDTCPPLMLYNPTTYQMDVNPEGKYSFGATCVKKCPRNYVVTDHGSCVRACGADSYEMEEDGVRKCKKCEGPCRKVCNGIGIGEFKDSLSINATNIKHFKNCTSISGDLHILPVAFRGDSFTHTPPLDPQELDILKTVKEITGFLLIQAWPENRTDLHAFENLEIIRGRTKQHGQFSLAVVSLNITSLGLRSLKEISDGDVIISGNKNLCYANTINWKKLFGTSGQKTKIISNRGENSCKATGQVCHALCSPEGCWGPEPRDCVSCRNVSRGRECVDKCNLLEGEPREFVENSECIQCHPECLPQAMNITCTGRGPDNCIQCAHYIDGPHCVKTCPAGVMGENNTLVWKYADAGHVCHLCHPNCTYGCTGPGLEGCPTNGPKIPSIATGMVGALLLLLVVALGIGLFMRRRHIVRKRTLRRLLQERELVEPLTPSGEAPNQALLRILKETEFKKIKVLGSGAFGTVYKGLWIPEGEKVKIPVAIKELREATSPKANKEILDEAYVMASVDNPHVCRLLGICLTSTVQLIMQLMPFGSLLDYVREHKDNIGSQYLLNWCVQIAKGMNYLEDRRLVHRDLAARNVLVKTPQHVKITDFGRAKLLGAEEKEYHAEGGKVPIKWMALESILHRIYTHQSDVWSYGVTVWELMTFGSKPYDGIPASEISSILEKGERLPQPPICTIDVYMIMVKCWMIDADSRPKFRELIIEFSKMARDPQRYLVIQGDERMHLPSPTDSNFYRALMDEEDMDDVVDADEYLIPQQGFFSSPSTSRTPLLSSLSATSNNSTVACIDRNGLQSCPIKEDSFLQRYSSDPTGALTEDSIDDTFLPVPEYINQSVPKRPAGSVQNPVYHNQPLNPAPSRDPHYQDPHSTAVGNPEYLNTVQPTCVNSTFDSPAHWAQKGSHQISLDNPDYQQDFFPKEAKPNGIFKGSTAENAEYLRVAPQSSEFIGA
Overview of recorded IC50 for various compounds
Give the value in nM but do not write nM after it.

Study these solved cases before continuing.
INSERT INTO assay_data (compound, recorded_metric, numeric_value) VALUES
  ('Cn1ncc2c1OCCN1CC3CCC(C3)(C1)n1c(nc3ccc(N4CCC(N5CC(F)C5)C4)cc31)NC(=O)c1cc-2c(=O)n(C)c1 (single isomer, unassigned) [Example A94B2]', 'IC50', 9.7),
  ('Cn1ncc2c1OCCN1CC3CCC(C3)(C1)n1c(nc3ccc(N4CCC(N5CC(F)C5)C4)cc31)NC(=O)c1cc-2c(=O)n(C)c1 (single isomer, unassigned) [Example A94B]', 'IC50', 9.5),
  ('CN1CCC2(CC1)CCN(c1ccc3nc4n(c3c1)C13CCC(CN(CCOc5c(cnn5C)-c5cc(cn(C)c5=O)C(=O)N4)C1)C3)C2 (single isomer, unassigned) [Example A88B]', 'IC50', 2.8),
  ('C[C@@H]1CCCOc2c(cnn2C)-c2cc(cn(C)c2=O)C(=O)Nc2nc3ccc(N4CC(N(C)C)C4)cc3n2C1', 'IC50', 2.3),
  ('CN(C)C1CCN(c2ccc3nc4n(c3c2)C23CCC(CN(CCOc5c(cnn5C)-c5cc(cn(C)c5=O)C(=O)N4)C2)C3)CC1(F)F (single isomer, unassigned) [Example A97B]', 'IC50', 4.7);

Request: // Input: CN1CC2CN(c3ccc4nc5n(c4c3)C34CCC(CN(CCOc6c(cnn6C)-c6cc(cn(C)c6=O)C(=O)N5)C3)C4)CC2C1 (single isomer, unassigned) [Example A68B] . Output its IC50 only.
Response: 1.8

Request: // Input: CN(C)CCCN(C)c1ccc2nc3n(c2c1)C12CCC(CN(CCOc4c(cnn4C)-c4cc(cn(C)c4=O)C(=O)N3)C1)C2 (single isomer, unassigned) [Example A89B] . Output its IC50 only.
Response: 5.4

Request: // Input: CN1CCC2CN(c3ccc4nc5n(c4c3)C34CCC(CC3)CN(CCOc3c(cnn3C)-c3cc(cn(C)c3=O)C(=O)N5)C4)CC21 (centres unmarked) . Output its IC50 only.
Response: 39

Request: // Input: `C[C@@H]1CCCOc2c(cnn2C)-c2cc(cn(C)c2=O)C(=O)Nc2nc3ccc(N4CC(N5CCN(C)CC5)C4)cc3n2C1` . Output its IC50 only.
Response: 5.7

* * *

tested on: Ba/F3 cells expressing EGFR mutations; assay: Cell proliferation assay, Ba/F3 cells expressing EGFR mutations (CellTiter-Glo, 72 hours); format: cell-based; conditions: BaF3 cells, EGFR DEL19-T790-C797S, CellTiter-Glo, read-out: DEL19-T790-C797S/BaF3 GI50
RECORDED METRIC: GI50 (nM)
Give the value in nM but do not write nM after it.

Study these solved cases before continuing.
INSERT INTO results (compound, result_unit, numeric_value) VALUES
  ('CN1CCC2(CC1)CN(c1ccc3nc4n(c3c1)C13CCC(CN(CCOc5c(cnn5C)-c5cc(cn(C)c5=O)C(=O)N4)C1)C3)C2 (single isomer, unassigned) [Example A77B]', 'nM', 0.91),
  ('Cn1ncc2c1OCCN1CC3CCC(C3)(C1)n1c(nc3ccc(N4CCC(N5CC(F)C5)CC4)cc31)NC(=O)c1cc-2c(=O)n(C)c1 (single isomer, unassigned) [Example A87B]', 'nM', 4);

# next compound below
Request: // Input: CN1CCC2CN(c3ccc4nc5n(c4c3)C34CCC(CN(CCOc6c(cnn6C)-c6cc(cn(C)c6=O)C(=O)N5)C3)C4)CC21 (single isomer, unassigned) [Example A79B] . Output its GI50 only.
Response: 10

* * *

Overview of recorded GI50 for various molecules
test system: Ba/F3 cells expressing EGFR mutations; assay: Cell proliferation assay, Ba/F3 cells expressing EGFR mutations (CellTiter-Glo, 72 hours); type: cell-based; details: Mus musculus, BaF3, 72 h, BaF3 cells, EGFR L858R - T790-C797S, read-out: GI50 L858R - T790-C797S/BaF3
Give the value in nM but do not write nM after it.

INSERT INTO results (molecule, tested_system, result_unit, numeric_value) VALUES
  ('Cc1cc2cc(n1)-c1cnn(C)c1OCCN1CC3CCC(CC3)(C1)n1c(nc3ccc(N4CCN(C5CC5)CC4)cc31)NC2=O [Example B36]', 'Ba/F3 cells expressing EGFR mutations', 'nM', 15),
  ('CN1CCC12CCN(c1ccc3nc4n(c3c1)C13CCC(CC1)CN(CCOc1c(cnn1C)-c1cc(cn(C)c1=O)C(=O)N4)C3)CC2 [Example A122]', 'Ba/F3 cells expressing EGFR mutations', 'nM', 13);

# next molecule below
Request: // Input: Cn1ncc2c1OCCN1CC3CCC(C3)(C1)n1c(nc3cc(F)ccc31)NC(=O)c1cc-2c(=O)n(C)c1 (stereo not drawn) [Example A117B] . Output its GI50 only.
Response: 32

* * *

molecular target: EGFR wild type (Homo sapiens, UniProt P00533); construct: purchased Carna Bio; assay: Inhibition of EGFR wild type biochemical enzymatic activity (HTRF); details: EGFR wild type, 1 mM ATP, 1 h at room temperature, read-out: IC50 @WT
Sequence (P00533 25-1210): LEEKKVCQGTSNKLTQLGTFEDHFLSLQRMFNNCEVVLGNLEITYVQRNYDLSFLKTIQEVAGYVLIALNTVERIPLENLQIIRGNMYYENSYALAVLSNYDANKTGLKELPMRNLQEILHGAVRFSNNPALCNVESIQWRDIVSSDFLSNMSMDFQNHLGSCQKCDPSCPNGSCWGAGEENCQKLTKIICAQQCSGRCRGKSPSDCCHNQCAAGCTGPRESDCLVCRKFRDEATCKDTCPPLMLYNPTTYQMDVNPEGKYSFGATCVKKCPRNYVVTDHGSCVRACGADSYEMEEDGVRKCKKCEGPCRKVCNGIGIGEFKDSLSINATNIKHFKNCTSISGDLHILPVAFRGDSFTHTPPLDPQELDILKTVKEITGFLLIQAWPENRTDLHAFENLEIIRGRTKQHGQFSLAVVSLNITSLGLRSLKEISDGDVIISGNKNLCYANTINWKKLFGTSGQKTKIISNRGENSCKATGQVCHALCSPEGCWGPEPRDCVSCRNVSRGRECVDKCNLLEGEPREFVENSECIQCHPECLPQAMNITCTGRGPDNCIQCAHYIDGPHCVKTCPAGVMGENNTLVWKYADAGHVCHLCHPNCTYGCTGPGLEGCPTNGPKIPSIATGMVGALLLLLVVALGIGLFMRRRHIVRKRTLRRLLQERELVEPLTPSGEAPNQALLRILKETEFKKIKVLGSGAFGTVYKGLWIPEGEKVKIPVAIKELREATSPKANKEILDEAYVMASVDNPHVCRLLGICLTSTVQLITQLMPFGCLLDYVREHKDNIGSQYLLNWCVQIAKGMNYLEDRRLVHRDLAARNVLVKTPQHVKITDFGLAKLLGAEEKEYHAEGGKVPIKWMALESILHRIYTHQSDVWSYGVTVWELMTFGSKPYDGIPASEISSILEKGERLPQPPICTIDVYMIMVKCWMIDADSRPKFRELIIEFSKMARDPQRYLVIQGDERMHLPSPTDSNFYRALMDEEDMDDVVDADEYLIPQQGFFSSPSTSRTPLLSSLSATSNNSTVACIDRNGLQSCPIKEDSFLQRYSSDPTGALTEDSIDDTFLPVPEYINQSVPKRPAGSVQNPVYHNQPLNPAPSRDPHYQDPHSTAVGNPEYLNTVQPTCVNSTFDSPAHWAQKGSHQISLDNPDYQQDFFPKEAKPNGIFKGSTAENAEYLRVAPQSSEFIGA
Overview of recorded IC50 for various compounds

Study these solved cases before continuing.
INSERT INTO results (compound, recorded_metric, result) VALUES
  ('Cc1cc2cc(n1)-c1cnn(C)c1OCCN1CC3CCC(CC3)(C1)n1c(nc3ccc(N4CCC5(CCN(C)CC5)C4)cc31)NC2=O', 'IC50', '> 5 µM'),
  ('Cc1cc2cc(n1)-c1cnn(C)c1OCCN1CC3CCC(C3)(C1)n1c(nc3ccc(N4CCC5(CN(C)C5)C4)cc31)NC2=O (single isomer, unassigned) [Example B50A]', 'IC50', '> 5 µM'),
  ('Cc1cc2cc(n1)-c1cnn(C)c1OCCN1CC3CCC(CC3)(C1)n1c(nc3ccc(N(C)CCN(C)C)cc31)NC2=O', 'IC50', '> 5 µM'),
  ('Cc1cc2cc(n1)-c1cnn(C)c1OCCN1CC3CCC(C3)(C1)n1c(nc3ccc(N4CCC5(CC4)CCN5C)cc31)NC2=O (single isomer, unassigned) [Example B54A]', 'IC50', '> 5 µM'),
  ('Cc1cc2cc(n1)-c1cnn(C)c1OCCN1CC3CCC(C3)(C1)n1c(nc3ccc(N(C)CCN(C)C)cc31)NC2=O (single isomer, unassigned) [Example B47B]', 'IC50', '0.805 µM'),
  ('Cc1cc2cc(n1)-c1cnn(C)c1OCCN1CC3CCC(C3)(C1)n1c(nc3ccc(N4CCC(N5CCOCC5)C4)cc31)NC2=O (single isomer, unassigned) [Example B44B1]', 'IC50', '> 5 µM'),
  ('Cc1cc2cc(n1)-c1cnn(C)c1OCCN1CC3CCC(C3)(C1)n1c(nc3ccc(N4CC[C@H](N(C)C)C4)cc31)NC2=O (single isomer, unassigned) [Example B41A]', 'IC50', '> 5 µM'),
  ('Cc1cc2cc(n1)-c1cnn(C)c1OCCN1CC3CCC(C3)(C1)n1c(nc3ccc(N4CC(N5CCOCC5)C4)cc31)NC2=O (single isomer, unassigned) [Example B48A]', 'IC50', '> 5 µM'),
  ('Cc1cc2cc(n1)-c1cnn(C)c1OCCN1CC3CCC(C3)(C1)n1c(nc3ccc(N4CC5CN(C)CC5C4)cc31)NC2=O (single isomer, unassigned) [Example B43A]', 'IC50', '> 5 µM'),
  ('Cc1cc2cc(n1)-c1cnn(C)c1OCCN1CC3CCC(C3)(C1)n1c(nc3ccc(N4CC5CN(C)CC5C4)cc31)NC2=O (single isomer, unassigned) [Example B43B]', 'IC50', '0.489 µM');

Request: Quote IC50 with test system EGFR wild type (Homo sapiens, UniProt P00533) for Cc1cc2cc(n1)-c1cnn(C)c1OCCN1CC3CCC(C3)(C1)n1c(nc3ccc(N4CCC(N5CCN(C)CC5)CC4)cc31)NC2=O (single isomer, unassigned) [Example B59B]
Response: 0.36 µM
